- target.or.system: Full-length human MNK1 (Homo sapiens, UniProt Q9BUB5, T385D)
- Construct: GST (N); purchased Carna Biosciences 02-145; host or cells: baculovirus expression system
- Sequence (Q9BUB5 1-424 isoform Q9BUB5-2 T344D): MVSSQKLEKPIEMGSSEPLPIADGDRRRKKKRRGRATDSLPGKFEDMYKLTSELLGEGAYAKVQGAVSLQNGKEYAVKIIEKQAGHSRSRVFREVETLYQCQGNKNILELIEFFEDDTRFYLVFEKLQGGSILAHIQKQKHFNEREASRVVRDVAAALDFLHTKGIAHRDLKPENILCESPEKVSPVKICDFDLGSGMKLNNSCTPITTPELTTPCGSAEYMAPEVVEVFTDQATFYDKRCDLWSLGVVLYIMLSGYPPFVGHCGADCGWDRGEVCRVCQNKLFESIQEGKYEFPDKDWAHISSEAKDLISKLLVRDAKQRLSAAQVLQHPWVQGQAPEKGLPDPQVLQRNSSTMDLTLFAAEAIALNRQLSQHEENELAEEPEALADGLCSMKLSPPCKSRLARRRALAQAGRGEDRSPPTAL
- experiment.summary: MNK1 biochemical IC50 assay (Caliper Mobility Shift Assay)
- recorded.conditions: read-out: P(IC50) MNK1 (converted)
measure.name: log10(IC50) (log10 of the value in nM)
Response schema: value (number) is log10 of IC50 in units of nM.

Exercise: Provide the documented log10(IC50) with Full-length human MNK1 (Homo sapiens, UniProt Q9BUB5, T385D) as the system for "O=C(NCC1CCNCC1)c1nc2c(N3c4ccccc4C[C@H]3CO)ncnc2s1"
Key: 2.30

Exercise: Report log10(IC50) for "CN(C)CCCNc1nc2c(N3CCc4cc(F)ccc43)ncnc2s1" tested on Full-length human MNK1 (Homo sapiens, UniProt Q9BUB5, T385D).
Key: 1.00

Exercise: Observed log10(IC50) on Full-length human MNK1 (Homo sapiens, UniProt Q9BUB5, T385D) for "O=C(NC1CCOCC1)c1nc2c(N3CC4(CC4)c4cc(F)ccc43)ncnc2s1" , please.
Key: 0.20

Exercise: Short answer please: log10(IC50), Full-length human MNK1 (Homo sapiens, UniProt Q9BUB5, T385D), entry "CC1(C)CN(c2ncnc3sc(C(=O)NC4CCNCC4)nc23)c2ccccc21"
Key: 0.80

Exercise: Reported log10(IC50) for Full-length human MNK1 (Homo sapiens, UniProt Q9BUB5, T385D), given "CC(C)Oc1c(F)cccc1Nc1ncnc2sc(C(=O)NCCCN(C)C)nc12" ?
Key: 1.70

Exercise: Observed log10(IC50) on Full-length human MNK1 (Homo sapiens, UniProt Q9BUB5, T385D) for "CNCCCNC(=O)c1nc2c(N3CCc4cc(F)ccc43)ncnc2s1" , please.
Key: 0.70

Exercise: Fill in the recorded log10(IC50) for this molecule, with Full-length human MNK1 (Homo sapiens, UniProt Q9BUB5, T385D) as test system: "CC(C)Oc1cc(F)ccc1Nc1ncnc2sc(C(=O)N3CC4(CNC4)C3)nc12"
Key: 2.40

Exercise: Can you look up log10(IC50) on Full-length human MNK1 (Homo sapiens, UniProt Q9BUB5, T385D) for "O=C(NC1CCOCC1)c1nc2c(N3CCc4cnccc43)ncnc2s1" ?
Key: 1.60

Exercise: Report log10(IC50) for "CC(C)Oc1cc(F)ccc1Nc1ncnc2sc(C(=O)N3CCC(CN(C)C)CC3)nc12" tested on Full-length human MNK1 (Homo sapiens, UniProt Q9BUB5, T385D).
Key: 2.20

Exercise: Item "CO[C@@H]1CCCC[C@H]1Oc1cc(F)ccc1Nc1ncnc2sc(C(=O)NCCCN(C)C)nc12" with Full-length human MNK1 (Homo sapiens, UniProt Q9BUB5, T385D) - log10(IC50)?
Key: 2.90

Exercise: # value lookup — system Full-length human MNK1 (Homo sapiens, UniProt Q9BUB5, T385D), readout log10(IC50), item "O=C(NCC1CCNCC1)c1nc2c(N3CCc4cc(C(F)(F)F)ccc43)ncnc2s1"
Key: 2.10

Exercise: Observed log10(IC50) on Full-length human MNK1 (Homo sapiens, UniProt Q9BUB5, T385D) for "CN(C)Cc1cn(-c2ncnc3sc(C(=O)NC4CCOCC4)nc23)c2ccccc12" , please.
Key: 1.60

Exercise: Notebook: pull reported log10(IC50) for Full-length human MNK1 (Homo sapiens, UniProt Q9BUB5, T385D), entry CNCC1CN(c2ncnc3sc(C(=O)NC4CCOCC4)nc23)c2ccccc21 (centres unmarked)
Key: 1.70

Exercise: Please provide the recorded log10(IC50) for CNC(=O)c1nc2c(N3CC(CCO)c4ccccc43)ncnc2s1 (centres unmarked) , tested on Full-length human MNK1 (Homo sapiens, UniProt Q9BUB5, T385D).
Key: 1.50

Exercise: Kindly state the measured log10(IC50) obtained for "CN1CCC2(CC1)CN(c1ncnc3sc(C(=O)NC4CCOCC4)nc13)c1ccccc12" with Full-length human MNK1 (Homo sapiens, UniProt Q9BUB5, T385D).
Key: 1.10

Exercise: Report log10(IC50) for "O=C(NCC1CCNCC1)c1nc2c(N3CCc4cc(F)ccc43)ncnc2s1" tested on Full-length human MNK1 (Homo sapiens, UniProt Q9BUB5, T385D).
Key: 0.70

Exercise: Request body: readout log10(IC50), system Full-length human MNK1 (Homo sapiens, UniProt Q9BUB5, T385D), query "CN(C)CCCOc1nc2c(N3CCc4cc(F)ccc43)ncnc2s1" . Return the value.
Key: 1.60

Exercise: Lab request: please report log10(IC50) under test system Full-length human MNK1 (Homo sapiens, UniProt Q9BUB5, T385D) for "CC(C)Oc1cc(F)ccc1Nc1ncnc2sc(C(=O)NC3CNC3)nc12"
Key: 2.10

Exercise: Tell me reported log10(IC50) for "CN(C)C(=O)c1nc2c(N3CCc4cc(F)ccc43)ncnc2s1" , tested with Full-length human MNK1 (Homo sapiens, UniProt Q9BUB5, T385D).
Key: 1.70

Exercise: Reported log10(IC50) for Full-length human MNK1 (Homo sapiens, UniProt Q9BUB5, T385D), given "CC(C)Oc1cc(F)ccc1Nc1ncnc2sc(C(=O)NCCCN(C)C)nc12" ?
Key: 1.80
